Tested on: barnyardgrass (Echinochloa crus-galli L.)
experimental-details: Test Example 1: herbicidal test by water treatment in a paddy field
Assay type: in vivo
Design: key: 5: Withered; 4.5: Herbicidal effect (or phytotoxicity) in a range of 90 to 99%; 4: Herbicidal effect (or phytotoxicity) in a range of 80 to 89%; 3.5: Herbicidal effect (or phytotoxicity) in a range of 70 to 79%; 3: Herbicidal effect (or phytotoxicity) in a range of 60 to 69%; 2.5: Herbicidal effect (or phytotoxicity) in a range of 50 to 59%; 2: Herbicidal effect (or phytotoxicity) in a range of 40 to 49%; 1.5: Herbicidal effect (or phytotoxicity) in a range of 30 to 39%; 1: Herbicidal effect (or phytotoxicity) in a range of 20 to 29%; 0.5: Herbicidal effect (or phytotoxicity) in a range of 1 to 19%; 0: No herbicidal effect (or no phytotoxicity)
run-parameters: water treatment in paddy field pot, dose of active ingredient 4 kg/hectare, evaluated thirty days after application
quantity-kind: Herbicidal effects Barnyard grass

Solved cases (3 shown):
Query (molecule): `CON(C)C(=O)NOc1cc(Cl)ccc1Cl` ; field requested: Herbicidal effects Barnyard grass
5

Moving on to `CC(C)N(C)C(=O)NOc1cc(Cl)cc(Cl)c1`
5

Note, next up: `COCCNC(=O)NOc1cc(Cl)ccc1Cl`
5

Next:
Any idea what its Herbicidal effects Barnyard grass is? The molecule is `NC(=O)NOc1cccc(Cl)c1`
0

Origin of the recorded values: patent EP0183174A2
